# credit: BindingDB's records for doi:10.1021/acs.jmedchem.6b00799

molecular target: DNA-dependent protein kinase catalytic subunit (Homo sapiens); test: Inhibition of DNA-PK (unknown origin)
Sequence (P78527 whole entry): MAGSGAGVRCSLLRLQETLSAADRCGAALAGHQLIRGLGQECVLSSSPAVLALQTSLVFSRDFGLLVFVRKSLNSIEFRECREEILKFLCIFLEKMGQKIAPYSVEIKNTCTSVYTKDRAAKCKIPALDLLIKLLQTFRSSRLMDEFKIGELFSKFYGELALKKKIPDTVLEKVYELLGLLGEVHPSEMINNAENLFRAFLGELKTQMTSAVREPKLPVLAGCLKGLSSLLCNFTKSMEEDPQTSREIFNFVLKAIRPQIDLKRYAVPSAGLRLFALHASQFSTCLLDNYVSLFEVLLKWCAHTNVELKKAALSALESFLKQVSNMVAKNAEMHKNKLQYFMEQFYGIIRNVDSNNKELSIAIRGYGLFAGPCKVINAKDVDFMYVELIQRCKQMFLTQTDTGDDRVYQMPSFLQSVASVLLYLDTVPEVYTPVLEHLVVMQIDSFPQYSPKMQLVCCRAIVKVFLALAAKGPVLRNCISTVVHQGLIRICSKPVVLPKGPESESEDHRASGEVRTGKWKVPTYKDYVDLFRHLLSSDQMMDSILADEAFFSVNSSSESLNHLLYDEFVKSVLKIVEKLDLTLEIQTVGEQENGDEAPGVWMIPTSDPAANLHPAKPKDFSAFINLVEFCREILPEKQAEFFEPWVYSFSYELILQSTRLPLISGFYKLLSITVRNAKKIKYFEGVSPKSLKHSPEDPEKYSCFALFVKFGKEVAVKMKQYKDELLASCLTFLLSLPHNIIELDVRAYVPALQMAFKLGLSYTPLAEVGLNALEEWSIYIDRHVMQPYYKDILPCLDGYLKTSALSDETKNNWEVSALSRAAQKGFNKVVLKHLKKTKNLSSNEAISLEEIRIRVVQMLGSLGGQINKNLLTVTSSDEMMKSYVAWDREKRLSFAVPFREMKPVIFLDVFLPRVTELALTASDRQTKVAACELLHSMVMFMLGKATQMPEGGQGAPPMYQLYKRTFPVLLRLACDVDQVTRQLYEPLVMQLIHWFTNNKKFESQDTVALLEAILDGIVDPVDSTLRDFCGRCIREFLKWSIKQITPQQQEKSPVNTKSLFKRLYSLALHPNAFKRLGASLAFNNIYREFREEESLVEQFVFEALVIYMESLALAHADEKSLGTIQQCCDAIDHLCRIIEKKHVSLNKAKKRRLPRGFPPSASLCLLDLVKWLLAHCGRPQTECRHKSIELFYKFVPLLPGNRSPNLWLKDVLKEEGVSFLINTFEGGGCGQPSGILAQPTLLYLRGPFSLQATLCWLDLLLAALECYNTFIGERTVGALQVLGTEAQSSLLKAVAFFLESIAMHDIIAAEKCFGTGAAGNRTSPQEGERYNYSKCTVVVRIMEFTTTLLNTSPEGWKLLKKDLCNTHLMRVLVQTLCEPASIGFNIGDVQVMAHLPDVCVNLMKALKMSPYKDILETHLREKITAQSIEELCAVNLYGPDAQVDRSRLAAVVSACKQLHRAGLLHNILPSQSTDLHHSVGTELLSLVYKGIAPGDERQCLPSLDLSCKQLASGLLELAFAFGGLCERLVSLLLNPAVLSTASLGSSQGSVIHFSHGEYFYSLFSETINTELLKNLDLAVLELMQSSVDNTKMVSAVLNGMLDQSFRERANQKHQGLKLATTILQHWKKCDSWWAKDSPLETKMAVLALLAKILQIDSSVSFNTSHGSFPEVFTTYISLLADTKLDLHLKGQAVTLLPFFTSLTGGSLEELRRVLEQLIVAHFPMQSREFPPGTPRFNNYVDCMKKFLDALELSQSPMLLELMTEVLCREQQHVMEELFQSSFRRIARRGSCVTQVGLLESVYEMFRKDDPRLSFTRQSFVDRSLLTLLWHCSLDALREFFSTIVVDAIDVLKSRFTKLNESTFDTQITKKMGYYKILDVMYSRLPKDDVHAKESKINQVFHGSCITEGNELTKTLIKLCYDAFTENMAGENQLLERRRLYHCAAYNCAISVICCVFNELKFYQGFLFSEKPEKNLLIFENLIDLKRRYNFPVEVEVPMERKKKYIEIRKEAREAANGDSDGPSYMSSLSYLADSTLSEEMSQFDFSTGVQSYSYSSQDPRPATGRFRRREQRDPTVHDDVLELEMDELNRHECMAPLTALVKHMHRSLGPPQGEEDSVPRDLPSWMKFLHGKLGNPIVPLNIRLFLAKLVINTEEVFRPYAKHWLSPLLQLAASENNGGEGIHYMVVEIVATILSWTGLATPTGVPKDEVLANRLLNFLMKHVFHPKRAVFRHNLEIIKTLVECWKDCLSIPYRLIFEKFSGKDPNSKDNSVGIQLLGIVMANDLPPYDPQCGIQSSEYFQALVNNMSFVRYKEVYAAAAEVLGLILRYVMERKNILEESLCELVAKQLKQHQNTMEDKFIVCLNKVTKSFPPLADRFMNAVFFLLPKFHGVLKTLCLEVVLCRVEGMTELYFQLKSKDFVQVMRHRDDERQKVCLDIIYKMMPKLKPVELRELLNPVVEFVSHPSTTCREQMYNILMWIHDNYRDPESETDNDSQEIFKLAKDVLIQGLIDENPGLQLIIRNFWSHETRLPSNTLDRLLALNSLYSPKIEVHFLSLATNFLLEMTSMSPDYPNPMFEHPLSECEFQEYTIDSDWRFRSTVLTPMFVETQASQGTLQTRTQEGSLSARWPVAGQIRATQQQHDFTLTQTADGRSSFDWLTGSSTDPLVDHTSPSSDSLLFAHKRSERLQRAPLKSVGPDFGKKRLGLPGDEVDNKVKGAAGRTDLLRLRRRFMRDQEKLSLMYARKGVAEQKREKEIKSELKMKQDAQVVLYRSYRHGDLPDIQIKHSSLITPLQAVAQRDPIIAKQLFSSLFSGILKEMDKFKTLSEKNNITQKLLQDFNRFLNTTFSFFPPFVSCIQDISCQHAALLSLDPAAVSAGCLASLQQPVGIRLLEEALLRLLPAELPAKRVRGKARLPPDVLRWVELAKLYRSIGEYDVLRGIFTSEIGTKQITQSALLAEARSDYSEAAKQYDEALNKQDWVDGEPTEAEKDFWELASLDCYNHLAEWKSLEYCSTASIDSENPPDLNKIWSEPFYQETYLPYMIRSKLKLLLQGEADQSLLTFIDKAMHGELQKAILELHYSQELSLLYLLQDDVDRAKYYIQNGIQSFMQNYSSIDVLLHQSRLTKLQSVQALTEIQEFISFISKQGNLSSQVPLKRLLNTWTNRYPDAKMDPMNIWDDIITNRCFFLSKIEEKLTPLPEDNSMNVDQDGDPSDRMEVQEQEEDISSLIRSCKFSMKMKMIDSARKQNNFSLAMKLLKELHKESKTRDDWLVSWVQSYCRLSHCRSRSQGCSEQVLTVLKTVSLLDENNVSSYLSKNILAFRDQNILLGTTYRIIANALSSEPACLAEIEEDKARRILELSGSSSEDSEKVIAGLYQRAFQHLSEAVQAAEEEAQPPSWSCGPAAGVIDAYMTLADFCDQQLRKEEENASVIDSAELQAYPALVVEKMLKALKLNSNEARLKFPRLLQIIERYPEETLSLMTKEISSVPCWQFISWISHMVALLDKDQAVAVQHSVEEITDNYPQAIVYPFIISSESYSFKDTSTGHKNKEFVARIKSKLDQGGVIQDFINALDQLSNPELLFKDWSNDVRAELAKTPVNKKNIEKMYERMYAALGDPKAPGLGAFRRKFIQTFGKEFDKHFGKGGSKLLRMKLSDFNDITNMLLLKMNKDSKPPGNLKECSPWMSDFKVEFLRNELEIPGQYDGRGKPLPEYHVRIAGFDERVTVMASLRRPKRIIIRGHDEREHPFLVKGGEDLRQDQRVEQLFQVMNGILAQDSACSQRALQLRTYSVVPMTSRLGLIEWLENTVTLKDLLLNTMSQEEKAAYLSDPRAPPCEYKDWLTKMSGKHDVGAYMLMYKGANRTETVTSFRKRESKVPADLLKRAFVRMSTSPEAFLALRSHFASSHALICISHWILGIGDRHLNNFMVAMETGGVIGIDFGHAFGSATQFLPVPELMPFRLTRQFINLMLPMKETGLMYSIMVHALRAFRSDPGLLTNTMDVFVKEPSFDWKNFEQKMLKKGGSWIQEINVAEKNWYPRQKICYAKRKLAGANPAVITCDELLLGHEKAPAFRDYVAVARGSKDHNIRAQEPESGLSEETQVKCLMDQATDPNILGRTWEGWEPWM
measured.property: IC50 (nM)

COc1ncc(-c2cc3c(c(NC(=O)CN4CCOCC4)c2)COC3)cc1NS(C)(=O)=O :: 2510
